Measured IC50 accompanies every entry in the list below.
Test system: 556581-035-R-J1-PDC complex spheroid viability
methodNotes: Anticancer human tumor 556581-035-R-J1-PDC patient-derived ovarian carcinoma cell line growth inhibition
testSettings: curve of first compound; second compound 1 µM
assayReadout: IC50 (nM)

- CC1COCCN1c1cc(-c2ccnn2C)c2ccnc(-c3ccn[nH]3)c2n1 (centres undefined) + NC1CC1c1ccc(-c2cccc(O)c2)cc1: 3.3
- O=C(C=Cn1cnc(-c2cc(C(F)(F)F)cc(C(F)(F)F)c2)n1)NNc1cnccn1 + NC1CCC(NC2CC2c2ccccc2)CC1: 289
- COc1ccc([C@@H](O)c2cc(-c3ncnc4cc(N5CCOCC5)ccc34)c(F)cc2Cl)nn1 + NC1CC1c1ccc(-c2cccc(O)c2)cc1: 1000
- COc1ccc([C@@H](O)c2cc(-c3ncnc4cc(N5CCOCC5)ccc34)c(F)cc2Cl)nn1 + NC1CCC(NC2CC2c2ccccc2)CC1: 906
- Nc1ccccc1NC(=O)c1ccc(CNC(=O)OCc2cccnc2)cc1 + NC1CCC(NC2CC2c2ccccc2)CC1: 111
- O=C(C=Cc1cccc(S(=O)(=O)Nc2ccccc2)c1)NO + NC1CCC(NC2CC2c2ccccc2)CC1: 76.3
- CC1(C)CCC(CN2CCN(c3ccc(C(=O)NS(=O)(=O)c4ccc(NCC5CCOCC5)c([N+](=O)[O-])c4)c(Oc4cnc5[nH]ccc5c4)c3)CC2)=C(c2ccc(Cl)cc2)C1 + NC1CC1c1ccc(-c2cccc(O)c2)cc1: 4040
- CC[C@@]1(O)C(=O)OCc2c1cc1n(c2=O)Cc2cc3c(CN(C)C)c(O)ccc3nc2-1 + NC1CC1c1ccc(-c2cccc(O)c2)cc1: 5.62
- COc1cc(C2c3cc4c(cc3C(OC3OC5COC(C)OC5C(O)C3O)C3COC(=O)C23)OCO4)cc(OC)c1O (centres undefined) + NC1CCC(NC2CC2c2ccccc2)CC1: 559
- CC[C@@]1(O)C(=O)OCc2c1cc1n(c2=O)Cc2cc3c(CN(C)C)c(O)ccc3nc2-1 + NC1CCC(NC2CC2c2ccccc2)CC1: 14.4
- NS(=O)(=O)OCC1CC(n2ccc3c(NC4CCc5ccccc54)ncnc32)CC1O (centres undefined) + NC1CC1c1ccc(-c2cccc(O)c2)cc1: 334

----------
Tested on: 556581-035-R-J1-PDC complex spheroid viability
methodNotes: Anticancer human tumor 556581-035-R-J1-PDC cell line growth inhibition;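 also: spheroids exposed to agents for seven days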;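 as to viability, T/C: 100% = DMSO vehicle control wells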
testSettings: second compound 3.16 µM; first compound 0.316 µM; stronger effect = lower value
assayReadout: viability, T/C (%)

• O=C(c1cc(Cc2n[nH]c(=O)c3ccccc23)ccc1F)N1CCN(C(=O)C2CC2)CC1 + NC1CC1c1ccc(-c2cccc(O)c2)cc1 = 84.9
• CC(C)c1c(-c2ccccc2)nc2c(C#N)c[nH]n2c1=O + NC1CC1c1ccc(-c2cccc(O)c2)cc1 = 84.8
• CC(C)c1c(-c2ccccc2)nc2c(C#N)c[nH]n2c1=O + NC1CCC(NC2CC2c2ccccc2)CC1 = 77.8
• O=C(C=Cn1cnc(-c2cc(C(F)(F)F)cc(C(F)(F)F)c2)n1)NNc1cnccn1 + NC1CCC(NC2CC2c2ccccc2)CC1 = 46.2
• COc1ccc([C@@H](O)c2cc(-c3ncnc4cc(N5CCOCC5)ccc34)c(F)cc2Cl)nn1 + NC1CCC(NC2CC2c2ccccc2)CC1 = 65.3
• CC1COCCN1c1cc(-c2ccnn2C)c2ccnc(-c3ccn[nH]3)c2n1 (configuration not stated) + NC1CC1c1ccc(-c2cccc(O)c2)cc1 = 26.9
• COc1ccc([C@@H](O)c2cc(-c3ncnc4cc(N5CCOCC5)ccc34)c(F)cc2Cl)nn1 + NC1CC1c1ccc(-c2cccc(O)c2)cc1 = 64.5
• O=C(C=Cn1cnc(-c2cc(C(F)(F)F)cc(C(F)(F)F)c2)n1)NNc1cnccn1 + NC1CC1c1ccc(-c2cccc(O)c2)cc1 = 28
• COc1cc(Nc2ncc3c(n2)-c2ccc(Cl)cc2C(c2c(F)cccc2OC)=NC3)ccc1C(=O)O + NC1CCC(NC2CC2c2ccccc2)CC1 = 53
• CC1COCCN1c1cc(-c2ccnn2C)c2ccnc(-c3ccn[nH]3)c2n1 (configuration not stated) + NC1CCC(NC2CC2c2ccccc2)CC1 = 35.8
• CC1(C)CCC(CN2CCN(c3ccc(C(=O)NS(=O)(=O)c4ccc(NCC5CCOCC5)c([N+](=O)[O-])c4)c(Oc4cnc5[nH]ccc5c4)c3)CC2)=C(c2ccc(Cl)cc2)C1 + NC1CCC(NC2CC2c2ccccc2)CC1 = 77.5
• Nc1ncn(C2CC(O)C(CO)O2)c(=O)n1 (configuration not stated) + NC1CC1c1ccc(-c2cccc(O)c2)cc1 = 62.3

----------
System: 556581-035-R-J1-PDC complex spheroid viability
methodNotes: Anticancer human tumor 556581-035-R-J1-PDC cell line growth inhibition;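 also: spheroids exposed to agents for seven days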;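 as to viability, T/C: 100% = DMSO vehicle control wells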
testSettings: second compound 0.316 µM; first compound 0.000316 µM; stronger effect = lower value
assayReadout: viability, T/C

* CC[C@@]1(O)C(=O)OCc2c1cc1n(c2=O)Cc2cc3c(CN(C)C)c(O)ccc3nc2-1 + NC1CC1c1ccc(-c2cccc(O)c2)cc1 | 95.5%
* Cn1ncnc1C1c2n[nH]c(=O)c3cc(F)cc(c23)NC1c1ccc(F)cc1 (stereo not drawn) + NC1CC1c1ccc(-c2cccc(O)c2)cc1 | 89.6%
* CC[C@@]1(O)C(=O)OCc2c1cc1n(c2=O)Cc2cc3c(CN(C)C)c(O)ccc3nc2-1 + NC1CCC(NC2CC2c2ccccc2)CC1 | 91.4%
* Cn1ncnc1C1c2n[nH]c(=O)c3cc(F)cc(c23)NC1c1ccc(F)cc1 (stereo not drawn) + NC1CCC(NC2CC2c2ccccc2)CC1 | 100%
* CC(C)CC(NC(=O)C(Cc1ccccc1)NC(=O)c1cnccn1)B(O)O (stereo not drawn) + NC1CC1c1ccc(-c2cccc(O)c2)cc1 | 3.63%
* CC(C)CC(NC(=O)CNC(=O)c1cc(Cl)ccc1Cl)B1OC(=O)CC(CC(=O)O)(C(=O)O)O1 (stereo not drawn) + NC1CCC(NC2CC2c2ccccc2)CC1 | 95.5%
* CC(C)CC(NC(=O)CNC(=O)c1cc(Cl)ccc1Cl)B1OC(=O)CC(CC(=O)O)(C(=O)O)O1 (stereo not drawn) + NC1CC1c1ccc(-c2cccc(O)c2)cc1 | 85.4%
* CC(C)CC(NC(=O)C(Cc1ccccc1)NC(=O)c1cnccn1)B(O)O (stereo not drawn) + NC1CCC(NC2CC2c2ccccc2)CC1 | 7.18%

----------
Test system: 556581-035-R-J1-PDC complex spheroid viability
methodNotes: Anticancer human tumor 556581-035-R-J1-PDC cell line growth inhibition;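 also: spheroids exposed to agents for seven days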;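 as to viability, T/C: 100% = DMSO vehicle control wells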
testSettings: second compound 3.16 µM; first compound 3 µM; stronger effect = lower value
Measured viability, T/C accompanies every entry in the list below.
assayReadout: viability, T/C (%)

- Nc1ccccc1NC(=O)c1ccc(CNC(=O)OCc2cccnc2)cc1 + NC1CCC(NC2CC2c2ccccc2)CC1: 1.11
- O=C(C=Cc1cccc(S(=O)(=O)Nc2ccccc2)c1)NO + NC1CCC(NC2CC2c2ccccc2)CC1: 0.16
- Nc1ccccc1NC(=O)c1ccc(CNC(=O)OCc2cccnc2)cc1 + NC1CC1c1ccc(-c2cccc(O)c2)cc1: 0.51
- CCN(c1cc(-c2ccc(CN3CCOCC3)cc2)cc(C(=O)NCc2c(C)cc(C)[nH]c2=O)c1C)C1CCOCC1 + NC1CCC(NC2CC2c2ccccc2)CC1: 49.5

----------
Measured log10 of IC50 accompanies every entry in the list below.
Test system: 556581-035-R-J1-PDC complex spheroid viability
methodNotes: Anticancer human tumor 556581-035-R-J1-PDC cell line growth inhibition;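 also: spheroids exposed to agents for seven days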
testSettings: curve of first compound; second compound 0.1 µM
assayReadout: log10 of IC50 (log10 of the value in µM)

* O=C(C=Cc1cccc(S(=O)(=O)Nc2ccccc2)c1)NO + NC1CCC(NC2CC2c2ccccc2)CC1 | -0.97
* NS(=O)(=O)OCC1CC(n2ccc3c(NC4CCc5ccccc54)ncnc32)CC1O (stereo not drawn) + NC1CC1c1ccc(-c2cccc(O)c2)cc1 | -0.49
* CC[C@@]1(O)C(=O)OCc2c1cc1n(c2=O)Cc2cc3c(CN(C)C)c(O)ccc3nc2-1 + NC1CC1c1ccc(-c2cccc(O)c2)cc1 | -2.23
* CC1COCCN1c1cc(-c2ccnn2C)c2ccnc(-c3ccn[nH]3)c2n1 (stereo not drawn) + NC1CC1c1ccc(-c2cccc(O)c2)cc1 | -2.28
* O=C(C=Cn1cnc(-c2cc(C(F)(F)F)cc(C(F)(F)F)c2)n1)NNc1cnccn1 + NC1CCC(NC2CC2c2ccccc2)CC1 | -0.67
* COc1cc(Nc2ncc3c(n2)-c2ccc(Cl)cc2C(c2c(F)cccc2OC)=NC3)ccc1C(=O)O + NC1CC1c1ccc(-c2cccc(O)c2)cc1 | -1.37
* CC1(C)CCC(CN2CCN(c3ccc(C(=O)NS(=O)(=O)c4ccc(NCC5CCOCC5)c([N+](=O)[O-])c4)c(Oc4cnc5[nH]ccc5c4)c3)CC2)=C(c2ccc(Cl)cc2)C1 + NC1CCC(NC2CC2c2ccccc2)CC1 | 0.64
* CC(C)CC(NC(=O)CNC(=O)c1cc(Cl)ccc1Cl)B1OC(=O)CC(CC(=O)O)(C(=O)O)O1 (stereo not drawn) + NC1CC1c1ccc(-c2cccc(O)c2)cc1 | -2.61
* CC1(C)CCC(CN2CCN(c3ccc(C(=O)NS(=O)(=O)c4ccc(NCC5CCOCC5)c([N+](=O)[O-])c4)c(Oc4cnc5[nH]ccc5c4)c3)CC2)=C(c2ccc(Cl)cc2)C1 + NC1CC1c1ccc(-c2cccc(O)c2)cc1 | 0.61
* Nc1ccn(C2OC(CO)C(O)C2(F)F)c(=O)n1 (stereo not drawn) + NC1CC1c1ccc(-c2cccc(O)c2)cc1 | -2.88
* O=C(C=Cn1cnc(-c2cc(C(F)(F)F)cc(C(F)(F)F)c2)n1)NNc1cnccn1 + NC1CC1c1ccc(-c2cccc(O)c2)cc1 | -1.39
* COc1cc(C2c3cc4c(cc3C(OC3OC5COC(C)OC5C(O)C3O)C3COC(=O)C23)OCO4)cc(OC)c1O (stereo not drawn) + NC1CCC(NC2CC2c2ccccc2)CC1 | -0.32
* O=C(C=Cc1cccc(S(=O)(=O)Nc2ccccc2)c1)NO + NC1CC1c1ccc(-c2cccc(O)c2)cc1 | -1.18
* CC1COCCN1c1cc(-c2ccnn2C)c2ccnc(-c3ccn[nH]3)c2n1 (stereo not drawn) + NC1CCC(NC2CC2c2ccccc2)CC1 | -1.34
* Nc1ncn(C2CC(O)C(CO)S2)c(=O)n1 (stereo not drawn) + NC1CCC(NC2CC2c2ccccc2)CC1 | -1.05
* COc1cc(Nc2ncc3c(n2)-c2ccc(Cl)cc2C(c2c(F)cccc2OC)=NC3)ccc1C(=O)O + NC1CCC(NC2CC2c2ccccc2)CC1 | -0.44
* CCN(c1cc(-c2ccc(CN3CCOCC3)cc2)cc(C(=O)NCc2c(C)cc(C)[nH]c2=O)c1C)C1CCOCC1 + NC1CC1c1ccc(-c2cccc(O)c2)cc1 | -0.11
* CC1COCCN1c1cc(C2(S(C)(=N)=O)CC2)nc(-c2ccnc3[nH]ccc23)n1 (stereo not drawn) + NC1CC1c1ccc(-c2cccc(O)c2)cc1 | 0.77
* COc1ccc([C@@H](O)c2cc(-c3ncnc4cc(N5CCOCC5)ccc34)c(F)cc2Cl)nn1 + NC1CC1c1ccc(-c2cccc(O)c2)cc1 | -0.07
